Biological target: UniProt:Q2FV99
Test: biochemical
Assay type: biochemical
Settings: fit of fractional activity vs inhibitor concentration
measurement kind: Hill Coefficient

input: May I ask what Hill Coefficient has been recorded for C=CS(=O)(=O)[C@H]1C[C@]2(C(=O)OC)CCC(=O)N2[C@H]1c1ccccc1 (relative stereo) [Compound 3j] ?
output: 1.90 ± 0.23

input: May I ask what Hill Coefficient has been recorded for C=CS(=O)(=O)[C@H]1C[C@@](CCC(=O)OC)(C(=O)OC)N[C@H]1c1cccnc1 (relative stereo) [Compound 2l] ?
output: 1.40 ± 0.33

input: May I ask what Hill Coefficient has been recorded for C=CS(=O)(=O)[C@H]1C[C@]2(C(=O)OC)CCC(=O)N2[C@H]1c1ccc(OC)c(OC)c1 (relative stereo) [Compound 3k] ?
output: 1.39 ± 0.28

input: May I ask what Hill Coefficient has been recorded for C=CS(=O)(=O)[C@H]1C[C@]2(C(=O)OC)CCC(=O)N2[C@H]1c1cccnc1 (relative stereo) [Compound 3l] ?
output: 1.42 ± 0.14
